# Target or test system: IMP-1 (Serratia marcescens, UniProt P52699)
# Sequence (P52699 22-246 limits assumed): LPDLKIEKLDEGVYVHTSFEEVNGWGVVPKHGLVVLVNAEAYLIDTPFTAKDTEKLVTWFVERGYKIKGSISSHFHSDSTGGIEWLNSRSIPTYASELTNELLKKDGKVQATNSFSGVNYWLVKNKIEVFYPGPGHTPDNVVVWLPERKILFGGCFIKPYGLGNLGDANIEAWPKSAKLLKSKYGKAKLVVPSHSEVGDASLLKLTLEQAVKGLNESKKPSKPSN
# Assay remarks: Kinetic inhibition assay of IMP-1 (hydrolysis of benzyl penicillin followed at 235 nm), Kic
# Format: biochemical
List of Ki values.
Answer with the figure and its unit, nothing else.

Answered examples (5):
{"columns": ["Molecule", "Measurement"],
 "data": [
  ["O=C(CS)N[C@@H](Cc1ccc(OCc2ccccc2Cl)cc1)C(=O)O [Compound 2d]", "1810 nM"],
  ["Cc1ccccc1COc1ccc(C[C@H](NC(=O)CS)C(=O)O)cc1 [Compound 2a]", "1040 nM"],
  ["O=C(CS)N[C@@H](Cc1ccc(OCc2cccc(Br)c2)cc1)C(=O)O [Compound 2j]", "3140 nM"],
  ["O=C(CS)N[C@@H](Cc1ccc(OCc2ccccc2[N+](=O)[O-])cc1)C(=O)O [Compound 2g]", "1650 nM"],
  ["Cc1cccc(COc2ccc(C[C@H](NC(=O)CS)C(=O)O)cc2)c1 [Compound 2b]", "1150 nM"]
]}

Prompt: I would be grateful if you could share the reported Ki for Cc1ccc(COc2ccc(C[C@H](NC(=O)CS)C(=O)O)cc2)cc1 [Compound 2c] .
Response: 1070 nM

Prompt: Need Ki, item O=C(CS)N[C@@H](Cc1ccc(OCc2cccc([N+](=O)[O-])c2)cc1)C(=O)O [Compound 2h]
Response: 2860 nM

Prompt: Endpoint output: Ki of O=C(CS)N[C@@H](Cc1ccc(OCc2ccc(Br)cc2)cc1)C(=O)O [Compound 2k] . Value?
Response: 3300 nM

---

# Target or test system: IMP-1 (Serratia marcescens)
# Assay remarks: Kinetic inhibition assay of IMP-1 (hydrolysis of benzyl penicillin followed at 235 nm), Kic
# Type: biochemical
Assay metric: Ki (µM)
Field: numeric (µM). Do not append units.

Below: 2 compounds and their reported Ki.
{"columns": ["Line notation", "Assay metric", "Measurement"],
 "data": [
  ["O=C(CS)N[C@@H](Cc1ccc(OCc2ccc(Cl)cc2)cc1)C(=O)O", "Ki", 3.2],
  ["O=C(CS)N[C@@H](Cc1ccc(OCc2cccc(Cl)c2)cc1)C(=O)O", "Ki", 4.77]
]}

Prompt: Request the reported Ki associated with "O=C(CS)N[C@@H](Cc1ccc(OCc2ccc([N+](=O)[O-])cc2)cc1)C(=O)O"
Response: 3.2
